SYSTEM TESTED: CK1α (Homo sapiens, UniProt P48729+Q96SW2)
Sequence (P48729 whole entry): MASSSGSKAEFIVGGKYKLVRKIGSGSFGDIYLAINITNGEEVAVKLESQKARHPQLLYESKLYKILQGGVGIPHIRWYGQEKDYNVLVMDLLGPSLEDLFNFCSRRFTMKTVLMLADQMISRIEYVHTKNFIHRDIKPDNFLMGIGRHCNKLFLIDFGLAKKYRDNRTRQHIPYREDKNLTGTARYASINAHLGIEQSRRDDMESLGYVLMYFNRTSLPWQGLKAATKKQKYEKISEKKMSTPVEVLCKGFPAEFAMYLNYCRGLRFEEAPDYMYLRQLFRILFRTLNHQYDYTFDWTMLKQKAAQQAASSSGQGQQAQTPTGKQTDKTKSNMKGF
Sequence (Q96SW2 whole entry): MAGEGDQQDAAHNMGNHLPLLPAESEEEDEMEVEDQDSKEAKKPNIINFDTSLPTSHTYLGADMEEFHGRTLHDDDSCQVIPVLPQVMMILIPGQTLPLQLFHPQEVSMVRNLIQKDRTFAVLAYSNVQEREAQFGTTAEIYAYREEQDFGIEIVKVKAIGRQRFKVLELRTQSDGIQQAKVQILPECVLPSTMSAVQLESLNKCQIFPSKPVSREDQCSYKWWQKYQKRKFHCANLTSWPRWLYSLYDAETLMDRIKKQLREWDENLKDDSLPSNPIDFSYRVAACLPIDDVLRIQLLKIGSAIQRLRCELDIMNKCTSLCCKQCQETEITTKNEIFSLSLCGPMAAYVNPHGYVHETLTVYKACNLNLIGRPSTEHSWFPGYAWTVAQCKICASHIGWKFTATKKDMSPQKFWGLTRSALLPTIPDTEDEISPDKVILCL
Sequence (Q16531 whole entry partner): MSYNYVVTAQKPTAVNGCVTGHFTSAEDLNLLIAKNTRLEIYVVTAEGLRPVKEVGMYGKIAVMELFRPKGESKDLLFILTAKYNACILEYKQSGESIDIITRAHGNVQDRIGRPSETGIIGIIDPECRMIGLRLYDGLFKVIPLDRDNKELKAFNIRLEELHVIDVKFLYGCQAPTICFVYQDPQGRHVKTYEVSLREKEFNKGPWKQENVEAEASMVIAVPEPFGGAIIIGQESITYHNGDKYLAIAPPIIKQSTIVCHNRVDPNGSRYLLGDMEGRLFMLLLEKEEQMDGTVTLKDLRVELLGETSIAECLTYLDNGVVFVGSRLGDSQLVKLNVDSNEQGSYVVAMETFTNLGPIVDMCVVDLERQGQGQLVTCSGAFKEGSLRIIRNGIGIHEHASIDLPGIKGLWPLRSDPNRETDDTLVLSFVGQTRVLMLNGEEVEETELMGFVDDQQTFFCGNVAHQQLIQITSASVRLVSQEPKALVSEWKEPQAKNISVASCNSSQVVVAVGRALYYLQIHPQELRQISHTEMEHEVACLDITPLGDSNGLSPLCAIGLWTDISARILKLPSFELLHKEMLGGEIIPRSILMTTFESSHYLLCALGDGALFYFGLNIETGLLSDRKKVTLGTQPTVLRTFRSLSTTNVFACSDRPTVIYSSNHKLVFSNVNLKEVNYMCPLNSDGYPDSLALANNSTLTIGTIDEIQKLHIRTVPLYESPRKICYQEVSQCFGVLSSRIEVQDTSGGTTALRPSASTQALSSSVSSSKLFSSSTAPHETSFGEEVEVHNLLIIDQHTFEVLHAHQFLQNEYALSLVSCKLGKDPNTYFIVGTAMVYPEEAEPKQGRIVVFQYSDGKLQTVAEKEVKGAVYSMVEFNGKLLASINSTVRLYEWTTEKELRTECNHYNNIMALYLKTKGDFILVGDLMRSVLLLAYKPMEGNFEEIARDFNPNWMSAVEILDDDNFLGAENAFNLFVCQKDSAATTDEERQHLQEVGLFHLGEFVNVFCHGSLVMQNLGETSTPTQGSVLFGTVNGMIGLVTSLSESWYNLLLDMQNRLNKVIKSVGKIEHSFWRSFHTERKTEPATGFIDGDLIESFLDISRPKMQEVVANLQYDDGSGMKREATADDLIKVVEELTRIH
TEST: CK1α degradation, flow cytometry in MV4-11 cells
Assay type: cell-based
Parameters: CK1α levels were determined in MV-4-11 cells using Jess (Protein Simple); host or cells: MV-4-11
TEST PARAMETERS: % reduction of CK1α compared to DMSO, MV4-11 cells at 316 nM for 16 hours, read-out: CK1α degradation classification
Structures can show the parent of a compound that is named as a salt.
EXPERIMENTAL READOUT: Dmax at 0.316 µM

>>> test_value("CCCCCN(CCC1(CN)CCCCC1)c1cccc2c1CN(C1CCC(=O)NC1=O)C2=O (stereo not shown)")
"50 to 75%"
>>> test_value("C/C=C\\CCN(CCCCN)c1cccc2c1CN(C1CCC(=O)NC1=O)C2=O (stereo not shown)")
"> 75%"
>>> test_value("CC(C)CN(c1cccc2c1CN(C1CCC(=O)NC1=O)C2=O)[C@H]1CC[C@H](N)CC1 (stereo partly shown) [Compound 236, HCl]")
"> 75%"
>>> test_value("O=C1CCC(N2Cc3c(cccc3N(CC3CC3)[C@H]3CC[C@H](NC4COC4)CC3)C2=O)C(=O)N1 (stereo partly shown)")
"> 75%"
>>> test_value("O=C1CCC(N2Cc3c(cccc3N(CCC3CC3)[C@H]3CC[C@H](NC(CF)CF)CC3)C2=O)C(=O)N1 (stereo partly shown)")
"50 to 75%"
>>> test_value("CCCCCN(c1cccc2c1CN(C1CCC(=O)NC1=O)C2=O)[C@H]1CCC[C@H](CN)C1 (stereo partly shown) [Compound 329, HCl]")
"50 to 75%"
>>> test_value("N[C@H]1CC[C@H](N(CCCC2CCOCC2)c2cccc3c2CN(C2CCC(=O)NC2=O)C3=O)CC1 (stereo partly shown) [Compound 242, hydrochloride]")
"> 75%"

====

SYSTEM TESTED: CK1α (Homo sapiens, UniProt P48729+Q96SW2)
TEST: CK1α degradation, Western blot in MV-4-11 cells
Assay type: cell-based
Parameters: CK1α levels were determined in MV-4-11 cells using Jess (Protein Simple); host or cells: MV-4-11
TEST PARAMETERS: % reduction of CK1α compared to DMSO, MV4-11 cells at 1 μM for 4 hours, read-out: CK1α degradation classification
EXPERIMENTAL READOUT: Dmax at 1 µM

>>> test_value("O=C1CCC(N2Cc3c(cccc3N(CCC3CC3)[C@H]3CC[C@H](NCC4(F)CCC4)CC3)C2=O)C(=O)N1 (stereo partly drawn) [Compound 613]")
"> 75%"
>>> test_value("C[C@]1(N)CC[C@@H](N(CCC2CC2)c2cccc3c2CN(C2CCC(=O)NC2=O)C3=O)CC1 (stereo partly drawn) [Compound 635]")
"> 75%"
>>> test_value("O=C1CCC(N2Cc3c(cccc3N(CCCCC(F)(F)F)[C@H]3CC[C@H](NCCC(F)(F)F)CC3)C2=O)C(=O)N1 (stereo partly drawn) [Compound 636]")
"> 75%"
>>> test_value("O=C1CCC(N2Cc3c(cccc3N(CCC3CC3)[C@H]3C[C@H](c4nnc[nH]4)C3)C2=O)C(=O)N1 (stereo partly drawn) [Compound 604]")
"> 75%"
>>> test_value("O=C1CCC(N2Cc3c(cccc3N(CCC3CC3)[C@H]3C[C@@H](c4nnc[nH]4)C3)C2=O)C(=O)N1 (stereo partly drawn) [Compound 603]")
"> 75%"
>>> test_value("C[C@]1(N)CC[C@H](N(CCC2CC2)c2cccc3c2CN(C2CCC(=O)NC2=O)C3=O)CC1 (stereo partly drawn) [Compound 634]")
"50 to 75%"
>>> test_value("O=C1CCC(N2Cc3c(cccc3N(CCC3CC3)[C@H]3CC[C@H](NCC4(F)COC4)CC3)C2=O)C(=O)N1 (stereo partly drawn) [Compound 616]")
"> 75%"
>>> test_value("O=C1CCC(N2Cc3c(cccc3N(CCC3CC3)[C@H]3CC[C@H](NCC4(F)CC4)CC3)C2=O)C(=O)N1 (stereo partly drawn) [Compound 612]")
"> 75%"
>>> test_value("CS(=O)(=O)C1(CN[C@H]2CC[C@H](N(CCC3CC3)c3cccc4c3CN(C3CCC(=O)NC3=O)C4=O)CC2)CC1 (stereo partly drawn) [Compound 615]")
"> 75%"

====

System: MV-4-11 cells
TEST: AML cell viability assay (RealTime-Glo)
Type: cell-based
TEST PARAMETERS: Homo sapiens, MV4-11; IC50 class; MV-4-11 cells, RealTime-Glo after 44 hrs of treatment (TABLE 5); read-out: Cell viability classification
pIC50: −log10 of the molar value.
EXPERIMENTAL READOUT: pIC50

>>> test_value("O=C1CCC(N2Cc3c(cccc3N(CCC3CC3)[C@H]3CC[C@H](N4CCC5(C4)CC5(F)F)CC3)C2=O)C(=O)N1 (stereo partly shown)")
"6.00 to 7.00"
>>> test_value("O=C1CCC(N2Cc3c(cccc3N(CCC3CC3)[C@H]3CC[C@@H](N4CC[C@@H](C(F)(F)F)C4)CC3)C2=O)C(=O)N1 (stereo partly shown) [Compound 713A]")
"< 6.00"
>>> test_value("O=C1CCC(N2Cc3c(cccc3N(CC3CC4(CCC4)C3)[C@H]3CC[C@H](NCCC(F)(F)F)CC3)C2=O)C(=O)N1 (stereo partly shown)")
"< 6.00"
>>> test_value("COCCN(C)[C@H]1CC[C@H](N(CCC2CC2)c2cccc3c2CN(C2CCC(=O)NC2=O)C3=O)CC1 (stereo partly shown)")
"6.00 to 7.00"

====

compounds and their reported Dmax at 0.316 µM
SYSTEM TESTED: CK1α (Homo sapiens, UniProt P48729+Q96SW2)
TEST: CK1α degradation, flow cytometry in MV4-11 cells
Format: cell-based
Parameters: CK1α levels were determined in MV-4-11 cells using Jess (Protein Simple); host or cells: MV-4-11
TEST PARAMETERS: % reduction of CK1α compared to DMSO, MV4-11 cells at 316 nM for 16 hours, read-out: CK1α degradation classification
Counter-ions that a name gives are not always drawn.
EXPERIMENTAL READOUT: Dmax at 0.316 µM

>>> test_value("NC[C@]1(O)CC[C@H](N(CCC2CC2)c2cccc3c2CN(C2CCC(=O)NC2=O)C3=O)CC1 (stereo partly shown) [Compound 523]")
"50 to 75%"
>>> test_value("CCCCCN(c1cccc2c1CN(C1CCC(=O)NC1=O)C2=O)[C@@H]1CC[C@@H](CN)C1 (stereo partly shown) [Compound 325, HCl salt]")
"> 75%"
>>> test_value("O=C1CCC(N2Cc3c(cccc3N(CCC3CC3)[C@H]3CC[C@H](NCC(F)F)CC3)C2=O)C(=O)N1 (stereo partly shown) [Compound 539]")
"50 to 75%"
>>> test_value("CCCCCN(c1cccc2c1CN(C1CCC(=O)NC1=O)C2=O)[C@H]1CC[C@@H](C(=O)NC)CC1 (stereo partly shown) [Compound 308]")
"> 75%"
>>> test_value("CC(CC(F)(F)F)N[C@H]1CC[C@H](N(CCC2CC2)c2cccc3c2CN(C2CCC(=O)NC2=O)C3=O)CC1 (stereo partly shown) [Compound 547]")
"> 75%"
>>> test_value("N[C@H]1CC[C@H](N(CCCC2CCNCC2)c2cccc3c2CN(C2CCC(=O)NC2=O)C3=O)CC1 (stereo partly shown) [Compound 241]")
"< 50%"
>>> test_value("N[C@H]1CC[C@H](N(CCCN2CCNCC2)c2cccc3c2CN(C2CCC(=O)NC2=O)C3=O)CC1 (stereo partly shown) [Compound 245]")
"< 50%"

====

System: MV-4-11 cells
TEST: AML cell viability assay (RealTime-Glo)
Assay type: cell-based
TEST PARAMETERS: Homo sapiens, MV4-11; IC50 class; MV-4-11 cells, RealTime-Glo after 44 hrs of treatment (TABLE 1); read-out: Cell viability classification
Counter-ions that a name gives are not always drawn.
EXPERIMENTAL READOUT: IC50

>>> test_value("CCCCCN(c1cccc2c1CN(C1CCC(=O)NC1=O)C2=O)[C@@H]1CC[C@H](N)C1 (some centres unmarked)")
"< 100 nM"
>>> test_value("N[C@H]1CC[C@@H](N(CCC2CC2)c2cccc3c2CN(C2CCC(=O)NC2=O)C3=O)C1 (some centres unmarked)")
"< 100 nM"
>>> test_value("N[C@H]1CC[C@H](N(CCCC2CCOC2)c2cccc3c2CN(C2CCC(=O)NC2=O)C3=O)CC1 (some centres unmarked)")
"100 to 1000 nM"
>>> test_value("NC(=O)[C@H]1CC[C@@H](N(CCCC2CCOCC2)c2cccc3c2CN(C2CCC(=O)NC2=O)C3=O)C1 (some centres unmarked)")
"100 to 1000 nM"
>>> test_value("CCCCCN(c1cccc2c1CN(C1CCC(=O)NC1=O)C2=O)[C@H]1CC[C@H](CN)CC1 (some centres unmarked) [Compound 90, hydrochloride]")
"< 100 nM"
>>> test_value("NC[C@H]1CC[C@@H](N(CCC2CC2)c2cccc3c2CN(C2CCC(=O)NC2=O)C3=O)CC1 (some centres unmarked)")
"< 100 nM"
>>> test_value("CC#CCN(CCCCN)c1cccc2c1CN(C1CCC(=O)NC1=O)C2=O (centres unmarked)")
"< 100 nM"
>>> test_value("CCCCCN(c1cccc2c1CN(C1CCC(=O)NC1=O)C2=O)[C@H]1CCC[C@@H](N)C1 (some centres unmarked)")
"< 100 nM"
>>> test_value("NC[C@H]1CC[C@@H](N(CCCC2CCOCC2)c2cccc3c2CN(C2CCC(=O)NC2=O)C3=O)CC1 (some centres unmarked)")
"< 100 nM"
>>> test_value("NCCCCCCN(CCCCN)c1cccc2c1CN(C1CCC(=O)NC1=O)C2=O (centres unmarked)")
"< 100 nM"
>>> test_value("N[C@H]1CC[C@H](N(CCC=C2CCOCC2)c2cccc3c2CN(C2CCC(=O)NC2=O)C3=O)CC1 (some centres unmarked)")
"100 to 1000 nM"
>>> test_value("CCCN(CCCCCN)c1cccc2c1CN(C1CCC(=O)NC1=O)C2=O (centres unmarked)")
"< 100 nM"
>>> test_value("CCCCCN(c1cccc2c1CN(C1CCC(=O)NC1=O)C2=O)[C@H]1CC[C@H](N)CC1 (some centres unmarked) [Compound 88, HCl]")
"< 100 nM"
>>> test_value("NCCCCN(CCCCCCO)c1cccc2c1CN(C1CCC(=O)NC1=O)C2=O (centres unmarked)")
"100 to 1000 nM"
>>> test_value("C[C@H]1CC[C@@H](N(c2cccc3c2CN(C2CCC(=O)NC2=O)C3=O)[C@H]2CC[C@@H](CN)CC2)CC1 (some centres unmarked)")
"> 1000 nM"
>>> test_value("N[C@H]1CC[C@H](N(Cc2ccccc2)c2cccc3c2CN(C2CCC(=O)NC2=O)C3=O)CC1 (some centres unmarked)")
"> 1000 nM"
>>> test_value("CNC(=O)[C@H]1CC[C@@H](N(CCC2CC2)c2cccc3c2CN(C2CCC(=O)NC2=O)C3=O)C1 (some centres unmarked)")
"< 100 nM"
>>> test_value("C[C@H]1CC[C@@H](N(c2cccc3c2CN(C2CCC(=O)NC2=O)C3=O)[C@@H]2CC[C@H](N)C2)CC1 (some centres unmarked)")
"> 1000 nM"
>>> test_value("NCCCCN(CCCCCO)c1cccc2c1CN(C1CCC(=O)NC1=O)C2=O (centres unmarked)")
"100 to 1000 nM"
>>> test_value("CCCCCN(CCCCNC)c1cccc2c1CN(C1CCC(=O)NC1=O)C2=O (centres unmarked)")
"< 100 nM"

// data source = patent US20250188069A1
